system name: sGC α1/β1 heterodimer (Homo sapiens, UniProt Q02108+Q02153)
Construct: expressed in transfected cells
Sequence (Q02108 whole entry partner): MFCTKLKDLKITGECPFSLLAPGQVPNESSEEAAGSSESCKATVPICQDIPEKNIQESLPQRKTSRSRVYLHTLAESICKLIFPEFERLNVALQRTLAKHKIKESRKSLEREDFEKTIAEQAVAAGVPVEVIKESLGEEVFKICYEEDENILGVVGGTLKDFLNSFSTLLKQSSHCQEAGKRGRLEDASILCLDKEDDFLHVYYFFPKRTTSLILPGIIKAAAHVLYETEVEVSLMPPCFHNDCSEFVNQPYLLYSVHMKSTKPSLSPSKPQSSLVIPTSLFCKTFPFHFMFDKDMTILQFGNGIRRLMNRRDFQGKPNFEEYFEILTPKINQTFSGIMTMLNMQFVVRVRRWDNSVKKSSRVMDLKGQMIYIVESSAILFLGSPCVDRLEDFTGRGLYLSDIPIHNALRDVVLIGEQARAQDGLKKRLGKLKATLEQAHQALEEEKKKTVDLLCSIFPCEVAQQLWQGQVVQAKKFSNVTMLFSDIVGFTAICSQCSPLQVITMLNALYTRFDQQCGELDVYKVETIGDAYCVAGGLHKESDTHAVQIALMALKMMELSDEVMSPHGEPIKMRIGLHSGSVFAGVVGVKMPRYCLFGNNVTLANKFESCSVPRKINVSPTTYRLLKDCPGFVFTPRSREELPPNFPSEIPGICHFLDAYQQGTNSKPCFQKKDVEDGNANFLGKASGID
Sequence (Q02153 whole entry): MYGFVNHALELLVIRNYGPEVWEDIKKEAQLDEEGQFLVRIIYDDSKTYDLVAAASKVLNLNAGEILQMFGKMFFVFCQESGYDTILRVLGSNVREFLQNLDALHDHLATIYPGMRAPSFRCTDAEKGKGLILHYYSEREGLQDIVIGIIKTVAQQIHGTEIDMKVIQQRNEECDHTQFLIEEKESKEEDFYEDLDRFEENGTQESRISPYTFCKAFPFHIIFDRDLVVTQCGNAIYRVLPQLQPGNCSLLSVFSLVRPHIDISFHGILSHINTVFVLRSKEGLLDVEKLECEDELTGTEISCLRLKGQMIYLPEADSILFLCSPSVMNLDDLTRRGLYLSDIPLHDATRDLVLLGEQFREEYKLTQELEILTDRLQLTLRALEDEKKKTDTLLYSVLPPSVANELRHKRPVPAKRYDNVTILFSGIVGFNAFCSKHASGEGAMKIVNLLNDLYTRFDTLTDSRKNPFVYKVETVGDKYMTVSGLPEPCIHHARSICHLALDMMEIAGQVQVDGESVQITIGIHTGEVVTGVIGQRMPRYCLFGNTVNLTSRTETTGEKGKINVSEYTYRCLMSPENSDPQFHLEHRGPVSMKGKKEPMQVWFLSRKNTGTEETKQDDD
assay name: Cell-based sGC Functional Assay (cGMP level by HTRF in CHO-K1/sGC cells)
setup conditions: with ODQ incubation (10 μM), read-out: IP (nM) inflection point
measured attribute: EC50 (nM)

[a] O=C(O)c1cnn(-c2cccc(-c3cc(C(F)(F)F)cnc3-c3ccc(C4CCN(CC(F)(F)F)CC4)cc3)n2)c1C(F)(F)F [Example 61]
[b] O=C(O)c1cnn(-c2cccc(-c3cc(F)ccc3-c3ccc(C4CCN(CCC(F)(F)F)CC4)cc3)n2)c1C(F)(F)F [Example 136]
[c] O=C(O)c1cnn(-c2cccc(-c3cc(Cl)ccc3-c3ccc(C4CCN(C(=O)C5CC5)CC4)cc3)n2)c1C(F)(F)F [Example 94]
Ask | Which order do these fall in by EC50? Give them lowest to highest. List each label, following the requested order.
Reply | a, c, b

---

system name: sGC α1/β1 heterodimer (Homo sapiens, UniProt Q02108+Q02153)
Construct: expressed in transfected cells
assay name: Cell-based sGC Functional Assay (cGMP level by HTRF in CHO-K1/sGC cells)
setup conditions: with ODQ incubation (10 μM), read-out: IP (nM) inflection point
Method: Cell-based sGC Functional Assay A CHO-K1 cell line stably expressing the sGC α1/β1 heterodimer was generated using a standard transfection protocol. CHO-K1 cells were transfected with plasmids pIREShyghsGCα1 and pIRESneo-hsGCβ1 simultaneously using FUGENE reagent. […] The level of intracellular cGMP was determined using an HTRF-based assay kit (CisBio, 62GM2PEC), which detects the displacement of a fluorescence labeled cGMP from its specific antibody. […]
measured attribute: EC50 (nM)

COC(=O)N1CCC(c2ccc(-c3ccc(C(F)(F)F)cc3-c3cccc(-n4ncc(C(=O)O)c4C(F)(F)F)n3)cc2)CC1 ... 15.8

[I] O=C(O)c1cnn(-c2cccc(-c3cc(Cl)ccc3-c3ccc(C4CCN(CC(F)(F)F)CC4)cc3)n2)c1C(F)(F)F
[II] O=C(O)c1cnn(-c2cccc(-c3cc(Cl)ccc3-c3ccc(N4CCN(CC(F)(F)F)CC4)cc3)n2)c1C(F)(F)F
Ask | Which item exceeds the other in EC50, I or II ? Kindly state the label of the option you pick.
Reply | I
(I: 14.6 nM, II: 9.8 nM)

---

system name: sGC α1/β1 heterodimer (Homo sapiens, UniProt Q02108+Q02153)
Construct: expressed in transfected cells
assay name: Cell-based sGC Functional Assay (cGMP level by HTRF in CHO-K1/sGC cells)
setup conditions: with ODQ incubation (10 μM), read-out: maximum fold induction over DMSO control
measured attribute: fold induction

// worked examples, fold induction included
O=C(O)c1cnn(-c2cccc(-c3cc(C(F)(F)F)cnc3-c3ccc(C4CCN(CC(F)(F)F)CC4)cc3)n2)c1C(F)(F)F ... 248
O=C(O)c1cnn(-c2cccc(-c3cc(Cl)ccc3-c3ccc(N4CCN(CC(F)(F)F)CC4)cc3)n2)c1C(F)(F)F ... 703
O=C(O)c1cnn(-c2cccc(-c3cc(F)ccc3-c3ccc(C4CCN(CCC(F)(F)F)CC4)cc3)n2)c1C(F)(F)F ... 162
O=C(O)c1cnn(-c2cccc(-c3cc(Cl)ccc3-c3ccc(C4CCN(C(=O)C5CC5)CC4)cc3)n2)c1C(F)(F)F ... 281

[1] O=C(O)c1cnn(-c2cccc(-c3cc(Cl)ccc3-c3ccc(C4CCN(CC(F)(F)F)CC4)cc3)n2)c1C(F)(F)F
[2] COC(=O)N1CCC(c2ccc(-c3ccc(C(F)(F)F)cc3-c3cccc(-n4ncc(C(=O)O)c4C(F)(F)F)n3)cc2)CC1
Ask | Which item exceeds the other in fold induction, 1 or 2 ? Kindly state the label of the option you pick.
Reply | 1
(1: 231, 2: 119)
